Assay: Oral bioavailability in Sprague-Dawley rat at 3 mg/kg administered in cassette mode measured up to 48 hrs
Format: ADME, organism-based
Conditions: in vivo
Consider the following molecules and their measured bioavailability readings.

molecular.string	units.label	bioavailability
Cc1nc(NC(=O)N2CCC[C@H]2C(N)=O)sc1-c1ccnc(C(C)(C)C)n1	%	26
[2H]C([2H])([2H])C(c1nccc(-c2sc(NC(=O)N3CCC[C@H]3C(N)=O)nc2C)n1)(C([2H])([2H])[2H])C([2H])([2H])[2H]	%	54

---

Test: Clearance in Sprague-Dawley rat at 1 mg/kg, iv administered in cassette mode measured up to 48 hrs
Type: ADME, organism-based
Conditions: in vivo

molecular.string	clearance, mL/min/kg
[2H]C([2H])([2H])C(c1nccc(-c2sc(NC(=O)N3CCC[C@H]3C(N)=O)nc2C)n1)(C([2H])([2H])[2H])C([2H])([2H])[2H]	16
